- ASSAY_TARGET: 11β-HSD1 (Homo sapiens, UniProt P28845)
- Sequence (P28845 whole entry): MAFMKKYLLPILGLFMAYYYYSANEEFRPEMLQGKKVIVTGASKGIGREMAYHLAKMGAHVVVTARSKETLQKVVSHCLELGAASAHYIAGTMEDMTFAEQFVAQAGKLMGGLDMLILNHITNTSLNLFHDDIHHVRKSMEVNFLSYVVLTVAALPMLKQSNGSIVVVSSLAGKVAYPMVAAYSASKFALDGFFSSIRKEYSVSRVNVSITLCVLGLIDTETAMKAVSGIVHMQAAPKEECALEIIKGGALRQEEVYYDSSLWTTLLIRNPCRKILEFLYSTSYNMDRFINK
- PROCEDURE_DETAILS: Biological Test Example 4: microsomal 11β-HSD1 in the presence of 50% human plasma
- STATED_CONDITIONS: IC50 in Test Example 4 divided by IC50 in Test Example 1
MEASURED_QUANTITY: Shift
No unit in the answer, only the number.

Recorded Shift, per entry:
[[record]]
smiles_record = "C[C@@H](c1ccc(-c2cncc(F)c2)cc1)N1CC[C@](CCCO)(c2ccc(F)cc2)OC1=O"
assay_target = "11β-HSD1 (Homo sapiens, UniProt P28845)"
measured_quantity = "Shift"
assay_result = 7.3

[[record]]
smiles_record = "Cc1ccc(-c2ccc([C@H](C)N3CC[C@](CC(C)(C)O)(c4ccc(F)cc4)OC3=O)cc2)nn1"
assay_target = "11β-HSD1 (Homo sapiens, UniProt P28845)"
measured_quantity = "Shift"
assay_result = 3.0

[[record]]
smiles_record = "Cc1nccc(-c2ccc([C@H](C)N3CC[C@](CC(C)(C)O)(c4ccccc4)OC3=O)cc2)n1"
assay_target = "11β-HSD1 (Homo sapiens, UniProt P28845)"
measured_quantity = "Shift"
assay_result = 3.1


Consider the additional compound presented here.
Shift for "C[C@@H](c1ccc(-c2ncc(C(=O)NC(C)(C)C)s2)cc1)N1CC[C@](CC(C)(C)C#N)(c2ccccc2)OC1=O" is 5.2

Attribution: patent US8569292B2
